target: P-gp (Homo sapiens, UniProt P08183); test: Inhibition of Calcein-AM transport in MDCK-MDR1 cells; conditions: Calcein-AM, MDCK-MDR1 cells; mean ± SEM of two experiments
Sequence (P08183 whole entry): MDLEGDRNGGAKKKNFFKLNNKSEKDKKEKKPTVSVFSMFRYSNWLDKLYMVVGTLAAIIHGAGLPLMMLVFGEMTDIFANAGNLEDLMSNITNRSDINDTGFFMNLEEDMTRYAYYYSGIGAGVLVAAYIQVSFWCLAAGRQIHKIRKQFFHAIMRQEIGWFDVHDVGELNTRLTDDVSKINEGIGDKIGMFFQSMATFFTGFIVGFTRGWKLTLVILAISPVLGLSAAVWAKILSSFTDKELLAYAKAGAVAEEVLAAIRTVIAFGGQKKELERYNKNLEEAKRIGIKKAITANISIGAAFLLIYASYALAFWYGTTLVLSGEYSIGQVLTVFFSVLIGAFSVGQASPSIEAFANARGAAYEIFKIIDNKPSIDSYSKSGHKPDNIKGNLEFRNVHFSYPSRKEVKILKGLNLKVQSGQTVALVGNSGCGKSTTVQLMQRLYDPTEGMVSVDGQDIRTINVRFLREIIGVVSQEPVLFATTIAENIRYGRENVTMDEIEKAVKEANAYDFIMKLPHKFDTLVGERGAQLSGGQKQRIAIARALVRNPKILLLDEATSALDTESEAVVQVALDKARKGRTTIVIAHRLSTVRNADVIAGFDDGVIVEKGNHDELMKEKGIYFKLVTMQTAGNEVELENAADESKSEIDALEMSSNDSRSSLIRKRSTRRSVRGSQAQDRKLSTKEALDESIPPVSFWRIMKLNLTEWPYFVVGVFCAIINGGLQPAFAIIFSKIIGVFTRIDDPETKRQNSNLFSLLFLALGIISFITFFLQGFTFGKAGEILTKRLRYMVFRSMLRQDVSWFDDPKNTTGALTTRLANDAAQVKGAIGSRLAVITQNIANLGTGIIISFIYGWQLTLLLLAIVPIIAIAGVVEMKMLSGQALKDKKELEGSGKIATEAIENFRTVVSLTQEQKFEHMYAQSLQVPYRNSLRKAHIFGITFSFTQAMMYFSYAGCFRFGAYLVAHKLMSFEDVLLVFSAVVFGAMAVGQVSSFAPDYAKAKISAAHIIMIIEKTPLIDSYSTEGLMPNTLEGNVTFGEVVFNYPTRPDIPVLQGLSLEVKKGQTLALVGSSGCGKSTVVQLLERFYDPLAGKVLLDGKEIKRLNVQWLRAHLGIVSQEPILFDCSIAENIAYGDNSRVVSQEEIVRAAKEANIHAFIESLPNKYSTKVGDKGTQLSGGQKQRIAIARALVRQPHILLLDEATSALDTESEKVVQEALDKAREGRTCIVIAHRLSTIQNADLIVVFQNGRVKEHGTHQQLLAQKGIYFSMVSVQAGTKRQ
For each entry below, report its pEC50 value.
// scale note: pEC50 = -log10(conc_M); give the bare number

[in] Would you kindly share the measured pEC50 for COc1cc2c(cc1OC)CN(CCc1ccc(OC(=O)c3ccccc3OC)cc1)CC2 ?
[out] 6.14

[in] Same question, COc1cc2c(cc1OC)CN(CCc1ccc(NC(=O)c3cnccn3)cc1)CC2 this time
[out] 5.72

[in] Also, COc1ccc(C(=O)Nc2ccc(CCN3CCc4cc(OC)c(OC)cc4C3)cc2)cn1 please.
[out] 5.64
